B1: C10orf62 (parent)
chain: GHSHHSHHGHPSHQSHSLPNRRH

Variants of: B1
PROTOCOL_TEXT: protein stability index of a GFP-peptide fusion (GPS, HEK-293T) (PSI 1-6); higher = more stable;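 further: lentivirally expressed fusions sorted by FACS into six bins by GFP to DsRed ratio, PSI derived from sequencing read proportions per bin multiplied by bin number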
CONDITION_LABEL: c terminus: native
Please enter YES where protein stability index is greater than or equal to 3, and NO where it is lower.

Check out these entries, answers already filled in.
Please check the record S17F and state if its protein stability index is at or above 3.
NO

Please check the record G1F and state if its protein stability index is at or above 3.
YES

Please check the record S17W and state if its protein stability index is at or above 3.
NO

Please check the record Q14W and state if its protein stability index is at or above 3.
YES

Please check the record P11F and state if its protein stability index is at or above 3.
NO

Please check the record G9S and state if its protein stability index is at or above 3.
NO

Please check the record H16G and state if its protein stability index is at or above 3.
YES

Please check the record H7M and state if its protein stability index is at or above 3.
NO

New cases:
Please check the record H10E and state if its protein stability index is at or above 3.
NO

Please check the record S12G and state if its protein stability index is at or above 3.
NO

Please check the record P11Y and state if its protein stability index is at or above 3.
NO

Please check the record G9T and state if its protein stability index is at or above 3.
NO

Please check the record S6T and state if its protein stability index is at or above 3.
YES

Please check the record H5L and state if its protein stability index is at or above 3.
NO

Please check the record S12Q and state if its protein stability index is at or above 3.
NO

Please check the record P11V and state if its protein stability index is at or above 3.
NO
